Just for reference, the nanobody polyreactivity screen of Harvey et al. (2022) is where these values come from.

- RUN_DESCRIPTION: yeast display, Sf9 membrane polyspecificity reagent, FACS + sequencing; frameworks hold sequencing errors
PROPERTY: polyreactivity (PSR sort gate)

SEQ_STRING	RECORDED_VALUE
QVQLVESGGGLVQAGGSLRLSCAASGSTFYIYAMGWYRQAPGKERELVARISGSGGSTYYSDSVKGRFTISRDNSKNTVYLQMNSLKPEVTAVYYCAADDIYKYYQYYAFPYYRYDYWGQGTQVTVSS	low polyreactivity
QVQLVESGGGLVQAGGSLRLSCATSGGTLVANAMGWSSQPPGKESEFVAVITLTAGSTSYADSVKGRLTISRDNAKNTVYLQMNSLKPEDTAVYYCNVDVYNVYNSYPYYYWGQGTQVTVSS	low polyreactivity

---

- RUN_DESCRIPTION: yeast display, Sf9 membrane polyspecificity reagent, FACS + sequencing; frameworks hold sequencing errors

SEQ_STRING	polyreactivity (PSR sort gate)
QVQLVESGGGLVQAGGSLRLSCAASGIIFSSYVMGWYRQAPGKERELVAAISKSGARTSYADSVKGRFTISRDNAKNTVYLQMNSLKPEDTAVYYCAATYLLERPTSKHPRYDYWGQGTQVTVSS	low polyreactivity
QVQLVESGGGLVQAGGSLRLSCAASGSTFSSYVMGWYRQAPGKERELVAGITRGGRTYYADSVKGRFTISRDNAKNTVYLQMNSLKPEDTAVYYCAKDQGGVHELDYWGQGTQVTVSS	low polyreactivity

---

- RUN_DESCRIPTION: yeast display, Sf9 membrane polyspecificity reagent, FACS + sequencing; frameworks hold sequencing errors
PROPERTY: polyreactivity (PSR sort gate)

Recorded results for 4 sequences are shown here.
SEQ_STRING	polyreactivity (PSR sort gate)
QVQLVESGGGLVQAGGSLRLICAASGLTFVPNAMGWYRQAPGKERELVAGITSAGSTYYADSVKGRFTISRDNAKNTVYLQMNSLKPEDTAVYYCAKQFYRGFRYGYWGQGTQVTVSS	high polyreactivity
QVQLVESCGGLVQAGGSLRLSCAASGFIFQPYAMGWYRQAPGTERELVAAITSRGGRTYYADSVKGRFTISRDNAKNTVYLQMNSLKPEDTAVYSCNAVIYACEYYYWGQGTQVTVSS	low polyreactivity
QVQLVESGGCLVQAGGSLRLTCAASGSTFGYEGRGWYRQAPGKERELVASIDSRCDSTYADSVKGRFTISRDNAKNTVYLQMNSLKPEDTAVYYCAADSWYTWFDSWGQGTQVTVSS	low polyreactivity
QVQLVESGGGLVQAGGSLRLSCAASGSIFSFYAMGWYRQAPGKEMELVATISSGDNTNYADSVKGRFTISRDNAKNTVYLQMNSLKPEDNAVYYCAADAWGVDREYDYWGQGTQVTVSS	low polyreactivity

Batch: polyreactivity (PSR sort gate) for all items listed.
1. QVQLVESGGGLVQAGGSLRLSCAASGRIFGHYVMGWYRQAPGKERELVAAISYSGGSTYYADSVKGRFTISRDNAKITVYLQMISLKPEDTAVYYCAARETQDSPYGAYYYWGQGTQVTVSS
2. QVQLVESGGGLVQAGCSLRLSCAASGLTFHWYTMGWYRQAPGKERELVATINSGGSTDYADSVKGRFTISRDNAKNTVYLQMNSLKPEDTAVYYCNAEYGYSGVGDDYWGQGTQVTVSS
3. QVQLVESGGGLVQAGGSLRISCAASGSIFQGYAMGWYRQAPGKERELVATITWSGGSTYYADSVTGRFTISRDNAKNTVYLQMNSLKPEETAVYYCNADSNGYYLWNYYGMYDYWGQGTEVTVSS
4. QVQLVESGGGLVQAGGSLRLSCAASGFTFQWYGMGWYRQAPGKERELVAAITWSGGRTNYADSVKGRFTISRDNAKNTVYLQMNSLKPEDTAVYYCNKVFPRRGGDDNYWGQGTQVTVSS

1: high polyreactivity; 2: low polyreactivity; 3: low polyreactivity; 4: high polyreactivity

Provide the reported polyreactivity (PSR sort gate) of each entry below, same order.
1. QVQIVESGGGLVQAGGSLRLSCAASGIIFGRNTMGWYRQAPGKERELVAGISSNGGSTYYADSVKGRFTISRDNAKNTVYLQMNSLKPEDTAVYYCAAYYNIPDRRRVGYDYWGQGTQVTVSS
2. QVQLVESGGGLVQAGGSLRLSCAASGTFVTYMGWYRQAPGKERELVAAIRNGGSTNYADSVKGRFTISRDKAKNTVYLQMNSLKPEDTAVYYCAADRAGSIMNYWGQGTQVTVSS
3. QVQLVESGGGLVQAGGSLRLSCAASGFTFDKYAMGWYRQAPGKERELVAAISGSGGTTYYADSVKGRFTISRDNAKNTVYLQMNSLKPEDTAVYYCATRLYSIYSYGYWGQGTQVTVSS

1: high polyreactivity; 2: low polyreactivity; 3: high polyreactivity
